target: Concanavalin-A (Canavalia ensiformis); assay: compounds binding concanavalin A lectin – biochemical, small-molecule microarray, Alexa647 label, 635 nm, artefact control for SMM control protein annotation, primary screen (AID 1127); conditions: ConA-A647 binding fluorescence, higher = more signal;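 also: z combines 667 nm emission intensity with signal-to-noise across three replicate slides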
Tick 1 if composite z-score is 0.5 or greater. Tick -1 if composite z-score is less than 0.5.

query: Textbook exercise: given the entry `CC(=O)NCCCC[C@@H]1NC(=O)[C@H]2C[C@@H](C(=O)NCCCCCCNC(=O)CS)[C@@H](c3cccc(OCCO)c3)N2C1=O` , state whether its composite z-score is greater than or equal to 0.5.
result: -1

query: Textbook exercise: given the entry `C[C@@H]1ON(c2ccc(I)cc2)[C@H](c2cccc(NC(=O)OCC3c4ccccc4-c4ccccc43)c2)[C@H]1C(=O)N1C(=O)OC[C@H]1Cc1ccccc1` , state whether its composite z-score is greater than or equal to 0.5.
result: 1

query: Textbook exercise: given the entry CCCc1cc2c(n1CCc1ccc(Cl)cc1)C(C)C1CN(C(=O)c3ccccc3)C(C)(C(=O)OC)C21 (configuration not stated) , state whether its composite z-score is greater than or equal to 0.5.
result: 1

query: Textbook exercise: given the entry `CN(C)CCCCNC(=O)[C@H]1C[C@H]2C(=O)NCC(=O)N2[C@H]1c1ccc(O)cc1` , state whether its composite z-score is greater than or equal to 0.5.
result: -1

query: Textbook exercise: given the entry O=C1NC(=O)C2C1C=CC(C(O)c1ccc([N+](=O)[O-])cc1)N2Nc1ccccn1 (configuration not stated) , state whether its composite z-score is greater than or equal to 0.5.
result: -1

query: Textbook exercise: given the entry `COCCOC(=O)N1C(=O)[C@@]2(c3cc(C#Cc4ccc(OC)cc4)ccc31)[C@H](c1ccc(OCCO)cc1)N1[C@H](c3ccccc3)[C@H](c3ccccc3)OC(=O)[C@H]1[C@@H]2C(=O)NC[C@H](O)c1ccccc1` , state whether its composite z-score is greater than or equal to 0.5.
result: 1

====

assay: JC-1 mitochondrial signal, unstimulated MM1S myeloma – cell-based, JC-1 fluorescence, 24 h, 100 nL compound, profiling panel (AID 1170); settings: MM1S mitochondrial potential, higher = more signal; also: test concentration not given here
PROPERTY_MEASURED: z-score
// no unit, no text: just the number

query: Using the record for `COCCOC(=O)N1C(=O)[C@@]2(c3cc(C#CCC(C(=O)OC)C(=O)OC)ccc31)[C@H](C(=O)Nc1nc3ccccc3s1)[C@H]1C(=O)O[C@H](c3ccccc3)[C@H](c3ccccc3)N1[C@@H]2c1ccc(O)cc1` , state its measured z-score.
result: 0.258

query: Using the record for COc1ccc(C(O)C2C=CC3C(=O)N(C)C(=O)C3N2N(c2ccccc2)c2ccccc2)cc1 (centres undefined) , state its measured z-score.
result: -0.426

query: Using the record for `O=C(O)[C@H](Cc1ccccc1)n1cc(C2(O)CCCCC2)nn1` , state its measured z-score.
result: -0.417

query: Using the record for CC(C)(C)N1CC=CC23O[C@@H]4/C=C\CCCOC(=O)C4[C@H]2C(=O)N(CCCO)[C@@H]3C1=O (some centres undefined) , state its measured z-score.
result: 0.229

====

target: Torsin-1A-interacting protein 2 (Homo sapiens) (UniProt Q8NFQ8); assay: small molecules binding lysate-expressed LULL1 – cell lysate, human LULL1 lysate, 635/667 nm fluorescence, primary screen (AID 1092); conditions: small-molecule microarray, hLULL1 lysate binding, 635 nm fluorescence; higher = more signal;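 also: probe is lysate of COS7 cells overexpressing human LULL1; score merges per-feature 667 nm fluorescence with signal-to-noise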
Sequence (Q8NFQ8 whole entry, looked up): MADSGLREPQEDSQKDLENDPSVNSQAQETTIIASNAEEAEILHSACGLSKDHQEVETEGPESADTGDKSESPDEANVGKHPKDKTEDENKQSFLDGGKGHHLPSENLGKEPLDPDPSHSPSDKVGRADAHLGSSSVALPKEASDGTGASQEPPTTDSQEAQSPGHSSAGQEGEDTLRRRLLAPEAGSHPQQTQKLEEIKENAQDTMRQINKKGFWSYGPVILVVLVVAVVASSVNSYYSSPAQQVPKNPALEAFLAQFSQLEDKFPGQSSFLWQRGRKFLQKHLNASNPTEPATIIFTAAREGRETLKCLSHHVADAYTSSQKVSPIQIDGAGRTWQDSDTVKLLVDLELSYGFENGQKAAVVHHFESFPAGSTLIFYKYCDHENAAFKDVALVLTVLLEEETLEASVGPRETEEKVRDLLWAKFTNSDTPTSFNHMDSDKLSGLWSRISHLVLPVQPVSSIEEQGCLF
Hi there, I'd appreciate the recorded composite z-score for every entry that follows.
// no unit, no text: just the number

query: Using the record for `COc1ccc(C#Cc2ccc3c(c2)[C@]2(C(=O)N3)[C@H](C(=O)O)[C@H]3C(=O)O[C@H](c4ccccc4)[C@H](c4ccccc4)N3[C@@H]2c2ccccc2OCCO)cc1` , state its measured composite z-score.
result: 2.2

query: Using the record for `COc1ccc([Si](C)(C)[C@H]2[C@H](CCO)O[C@@]3(C(=O)N(Cc4cccc(N5C(=O)c6ccccc6Oc6ccccc65)c4)c4ccccc43)[C@@H]2C)cc1` , state its measured composite z-score.
result: 1.51

query: Using the record for COc1ccc(C(O)C2C=CC3C(=O)N(C)C(=O)C3N2N(c2ccccc2)c2ccccc2)cc1 (configuration not stated) , state its measured composite z-score.
result: 2.18

query: Using the record for `COCCOC(=O)N1C(=O)[C@@]2(c3cc(C#CC4(O)CCCCCC4)ccc31)[C@H](c1ccc(O)cc1)N1[C@H](c3ccccc3)[C@H](c3ccccc3)OC(=O)[C@H]1[C@@H]2C(=O)N1CCCCCCC1` , state its measured composite z-score.
result: 2.09

query: Using the record for `CC(C)=C1C(=O)C(c2ccccc2)=C2CN3C(=O)N(CCc4ccccc4)C(=O)[C@]3(C)[C@H]21` , state its measured composite z-score.
result: 1.19

query: Using the record for CC(C)C(O)C1C=CC2C(=O)NC(=O)C2N1Nc1ccccn1 (configuration not stated) , state its measured composite z-score.
result: 1.92

query: Using the record for CC1CC/C=C\[C@H]2OC34C=CCN(c5ccc(Cl)cc5)C(=O)[C@H]3N(CCCCCCO)C(=O)[C@]4(C)C2C(=O)O1 (some centres not stated) , state its measured composite z-score.
result: 0.995
